Taken from a collection of fitness landscapes (doi:10.1016/j.celrep.2020.107928).

B1: Caulobacter ParB omega fusion; a variant is named by its letters at X, in order, B8GW30 (parent)
chain: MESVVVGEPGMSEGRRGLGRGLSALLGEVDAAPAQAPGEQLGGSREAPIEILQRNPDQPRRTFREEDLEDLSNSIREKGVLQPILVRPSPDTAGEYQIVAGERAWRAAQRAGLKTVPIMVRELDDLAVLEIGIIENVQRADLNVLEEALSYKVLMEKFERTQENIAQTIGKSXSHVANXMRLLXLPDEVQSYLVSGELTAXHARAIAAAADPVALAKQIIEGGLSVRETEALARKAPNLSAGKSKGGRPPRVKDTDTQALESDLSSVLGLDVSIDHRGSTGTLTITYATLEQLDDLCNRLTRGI

Variants of: B1
Assay: one-hybrid fitness for binding NBS DNA (the Noc-binding site; scaled: cognate 1, non-cognate 0); higher = stronger binding
Details: with NBS DNA site
Over roughly 81,000 sequences, “one-hybrid fitness for binding NBS DNA” has its median near -0.1; the highest 2% begin near 0.36. This excerpt belongs to a sample that is enriched for the highest values.
Value kind: one-hybrid fitness for binding NBS DNA
One number for each entry.

Below, each entry is followed by its recorded one-hybrid fitness for binding NBS DNA result.
- Mutation spec: "RRTS"
  Reported measurement: 0.661
- Mutation spec: "QAKV"
  Reported measurement: 0.393
- Mutation spec: "RCTH"
  Reported measurement: 0.237

Attention now turns to another entry.
one-hybrid fitness for binding NBS DNA in this record for QSVQ : 0.291
